Target sequence: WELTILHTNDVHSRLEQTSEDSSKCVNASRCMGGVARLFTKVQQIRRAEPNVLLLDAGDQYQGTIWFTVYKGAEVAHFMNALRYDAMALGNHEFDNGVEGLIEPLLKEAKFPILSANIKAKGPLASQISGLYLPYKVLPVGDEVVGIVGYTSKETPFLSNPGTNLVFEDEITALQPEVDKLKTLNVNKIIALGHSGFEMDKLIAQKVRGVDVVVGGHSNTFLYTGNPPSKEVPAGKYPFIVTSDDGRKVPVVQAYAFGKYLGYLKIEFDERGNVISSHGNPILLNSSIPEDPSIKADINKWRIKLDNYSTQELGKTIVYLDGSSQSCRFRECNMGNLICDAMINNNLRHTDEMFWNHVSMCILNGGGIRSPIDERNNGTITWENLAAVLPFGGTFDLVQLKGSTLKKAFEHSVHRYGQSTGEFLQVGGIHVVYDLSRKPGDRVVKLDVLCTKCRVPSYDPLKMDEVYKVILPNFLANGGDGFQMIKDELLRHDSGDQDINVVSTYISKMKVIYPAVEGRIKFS
quantity name: IC50

Recorded IC50 for CC(C)Nc1nc(Cl)nc2c1cnn2[C@@H]1O[C@H](CO[C@@](CO)(Cc2nn[nH]n2)P(=O)(O)O)[C@@H](O)[C@H]1O , please?
0.01 to 0.1 µM

Which IC50 is reported for this compound? O=P(O)(O)C(CO)(CCc1nnn[nH]1)OC[C@H]1O[C@@H](n2ncc3c(NC4CCCC4)nc(Cl)nc32)[C@H](O)[C@@H]1O (some centres unmarked)
≤ 0.01 µM

IC50 lookup needed for O=P(O)(O)[C@@](CO)(COCc1nn[nH]n1)OC[C@H]1O[C@@H](n2ncc3c(NC4CCC4)nc(Cl)nc32)[C@H](O)[C@@H]1O , thanks.
≤ 0.01 µM

What measured IC50 goes with COCC(OC[C@H]1O[C@@H](n2ncc3c(NC4CCCC4)nc(Cl)nc32)[C@H](O)[C@@H]1O)(C(=O)N(C)C)P(=O)(O)O (some centres unmarked) ?
0.01 to 0.1 µM

Value lookup for IC50; key = COC[C@@](OC[C@H]1O[C@@H](n2ncc3c(NC4CCCC4)nc(Cl)nc32)[C@H](O)[C@@H]1O)(C(=O)NO)P(=O)(O)O
≤ 0.01 µM

Can you share its IC50? I mean this compound: COC[C@](CC(=O)NO)(OC[C@H]1O[C@@H](n2ncc3c(NC4CCCC4)nc(Cl)nc32)[C@H](O)[C@@H]1O)P(=O)(O)O
≤ 0.01 µM

Look up IC50 for this compound: O=P(O)(O)[C@@](CO)(Cc1nn[nH]n1)OC[C@H]1O[C@@H](n2ncc3c(N[C@@H]4CCc5ccccc54)nc(Cl)nc32)[C@H](O)[C@@H]1O
≤ 0.01 µM

What measured IC50 goes with COC[C@@](Cc1nn[nH]n1)(OC[C@H]1O[C@@H](n2ncc3c(NCC(C)C)nc(Cl)nc32)[C@H](O)[C@@H]1O)P(=O)(O)O ?
0.01 to 0.1 µM

IC50 for COC[C@@](Cc1nn[nH]n1)(OC[C@H]1O[C@@H](n2ncc3c(NC(C)C)nc(Cl)nc32)[C@H](O)[C@@H]1O)P(=O)(O)O ?
0.01 to 0.1 µM

Record request: IC50 value, item CC(CS(C)(=O)=O)(OC[C@H]1O[C@@H](n2ncc3c(NC4CCCC4)nc(Cl)nc32)[C@H](O)[C@@H]1O)P(=O)(O)O (some centres unmarked)
0.01 to 0.1 µM

Look up IC50: COC[C@](COCC(=O)O)(OC[C@H]1O[C@@H](n2ncc3c(NC4CCCC4)nc(Cl)nc32)[C@H](O)[C@@H]1O)P(=O)(O)O
0.01 to 0.1 µM

Item COCC(OC[C@H]1O[C@@H](n2ncc3c(NC4CCCC4)nc(Cl)nc32)[C@H](O)[C@@H]1O)(C(=O)O)P(=O)(O)O (some centres unmarked) has what recorded IC50?
≤ 0.01 µM

Item under review: O=P(O)(O)C(CO)(COCc1nn[nH]n1)OC[C@H]1O[C@@H](n2ncc3c(N[C@@H]4CCc5ccccc54)nc(Cl)nc32)[C@H](O)[C@@H]1O (some centres unmarked) . Reported IC50?
≤ 0.01 µM

Give its IC50 value. Item: COCCOCC(COCc1nnn[nH]1)(OC[C@H]1O[C@@H](n2ncc3c(NC4CCCC4)nc(Cl)nc32)[C@H](O)[C@@H]1O)P(=O)(O)O (some centres unmarked)
≤ 0.01 µM

Return reported IC50; argument: O=c1[nH]c(COCC(CO)(OC[C@H]2O[C@@H](n3ncc4c(NC5CCCC5)nc(Cl)nc43)[C@H](O)[C@@H]2O)P(=O)(O)O)no1 (some centres unmarked)
≤ 0.01 µM

Given the compound O=P(O)(O)C(COCc1nnn[nH]1)(Cc1nnn[nH]1)OC[C@H]1O[C@@H](n2ncc3c(NC4CCCC4)nc(Cl)nc32)[C@H](O)[C@@H]1O (stereo in doubt) , what is its reported IC50?
≤ 0.01 µM

What IC50 value was documented for this compound, O=P(O)(O)[C@](CO)(COCc1nn[nH]n1)OC[C@H]1O[C@@H](n2ncc3c(NC4CCC4)nc(Cl)nc32)[C@H](O)[C@@H]1O ?
≤ 0.01 µM

I would be grateful if you could share the reported IC50 for COCC(COCc1nn[nH]n1)(OC[C@H]1O[C@@H](n2ncc3c(N[C@@H]4CCc5ccccc54)nc(Cl)nc32)[C@H](O)[C@@H]1O)P(=O)(O)O (some centres unmarked) .
≤ 0.01 µM

Which IC50 value belongs to O=P(O)(O)[C@](CO)(Cc1nn[nH]n1)OC[C@H]1O[C@@H](n2ncc3c(NCc4ccccc4Cl)nc(Cl)nc32)[C@H](O)[C@@H]1O (single isomer, unassigned) ?
0.01 to 0.1 µM

Requested read-out: IC50. Entry: O=P(O)(O)C(COCc1nnn[nH]1)(COCC1CC1)OC[C@H]1O[C@@H](n2ncc3c(NC4CCCC4)nc(Cl)nc32)[C@H](O)[C@@H]1O (stereo in doubt)
≤ 0.01 µM

Param item = O=P(O)(O)[C@@](CO)(Cc1nn[nH]n1)OC[C@H]1O[C@@H](n2ncc3c(NC4CCCC4)nc(C#CC4CC4)nc32)[C@H](O)[C@@H]1O ; retrieve measured IC50.
≤ 0.01 µM

I'd like to know its IC50. The compound in question is O=P(O)(O)[C@](CO)(COCc1nn[nH]n1)OC[C@H]1O[C@@H](n2ncc3c(NCC4CC4)nc(Cl)nc32)[C@H](O)[C@@H]1O
≤ 0.01 µM

# query: IC50 of entry O=P(O)(O)C(CO)(Cc1c[nH]nn1)OC[C@H]1O[C@@H](n2ncc3c(NC4CCCC4)nc(Cl)nc32)[C@H](O)[C@@H]1O (some centres unmarked)
0.01 to 0.1 µM
